# Condition details: in ethanol, 298.35 K
Recorded metric: solubility (mole fraction)

Enquiry: Entry c1ccc2c(c1)Cc1ccccc1-2 has what solubility (mole fraction)?
Return: 0.00802

====

# Condition details: in n-butanol, 293.76 K
Recorded metric: solubility (mole fraction)
Answer using only a numeral; do not append any unit.

Enquiry: # query: solubility (mole fraction) of entry c1ccc2c(c1)Cc1ccccc1-2
Return: 0.00906

====

# Condition details: in ethanol, 324.95 K
Recorded metric: solubility (mole fraction)

Enquiry: For the compound c1ccc2c(c1)Cc1ccccc1-2 , what solubility (mole fraction) is on record?
Return: 0.0216

====

# Condition details: in ethanol, 283.99 K
Recorded metric: solubility (mole fraction)

Enquiry: Sample c1ccc2c(c1)Cc1ccccc1-2 — what was its solubility (mole fraction)?
Return: 0.00455

====

# Condition details: in toluene, 288.77 K
Recorded metric: solubility (mole fraction)

Enquiry: What does the record list as solubility (mole fraction) for c1ccc2c(c1)Cc1ccccc1-2 ?
Return: 0.0819

====

# Condition details: in isopropanol, 313.78 K
Recorded metric: solubility (mole fraction)
Just the number, please, no unit attached.

Enquiry: Which solubility (mole fraction) reading was recorded for the compound c1ccc2c(c1)Cc1ccccc1-2 ?
Return: 0.0105

====

# Condition details: in toluene, 314.04 K
Recorded metric: solubility (mole fraction)
// print number alone

Enquiry: Quick one: solubility (mole fraction) of c1ccc2c(c1)Cc1ccccc1-2 ?
Return: 0.252

====

# Condition details: in isopropanol, 333.45 K
Recorded metric: solubility (mole fraction)
A bare number is all that is needed in reply.

Enquiry: Return reported solubility (mole fraction); argument: c1ccc2c(c1)Cc1ccccc1-2
Return: 0.0314

====

# Condition details: in isopropanol, 303.17 K
Recorded metric: solubility (mole fraction)
Response field accepts a number only; no unit should be typed.

Enquiry: solubility (mole fraction) lookup needed for c1ccc2c(c1)Cc1ccccc1-2 , thanks.
Return: 0.00565

====

# Condition details: in n-butanol, 304.06 K
Recorded metric: solubility (mole fraction)
Form rule: numeric answer, no unit written next to it.

Enquiry: Name the recorded solubility (mole fraction) for c1ccc2c(c1)Cc1ccccc1-2 .
Return: 0.0139

====

# Condition details: in ethanol, 308.77 K
Recorded metric: solubility (mole fraction)
The answer should be written as a number, with no unit following it.

Enquiry: Sample c1ccc2c(c1)Cc1ccccc1-2 — what was its solubility (mole fraction)?
Return: 0.0118

====

# Condition details: in n-butanol, 284.27 K
Recorded metric: solubility (mole fraction)
# output: bare number, no unit

Enquiry: State the recorded solubility (mole fraction) for this entry: c1ccc2c(c1)Cc1ccccc1-2
Return: 0.0059

====

# Condition details: in isopropanol, 288.28 K
Recorded metric: solubility (mole fraction)

Enquiry: Any idea what its solubility (mole fraction) is? The compound is c1ccc2c(c1)Cc1ccccc1-2
Return: 0.00221
